The entries below come with measured protein stability index values attached.
B1: STEAP1 (parent)
chain: WMLTRKQFGLLSFFFAVLHAIYSL

Variants of: B1
MEASUREMENT_PROTOCOL: protein stability index of a GFP-peptide fusion (GPS, HEK-293T) (PSI 1-6); higher = more stable;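 note: lentivirally expressed fusions sorted by FACS into six bins by GFP to DsRed ratio, PSI derived from sequencing read proportions per bin multiplied by bin number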
EXPERIMENTAL_CONDITIONS: c terminus: a fixed tail appended
REPORTED_METRIC: protein stability index

> print(dat)
                   residue.sequence  result.number
 1  WMLTRKQFGLLSFFFAVLHHIYSL [A20H]           1.62
 2  WMLTRKQFGALSFFFAVLHAIYSL [L10A]           1.76
 3  WMLTRKQFGLLSFFFAVLHWIYSL [A20W]           1.79
 4   WMLTRKVFGLLSFFFAVLHAIYSL [Q7V]            3.1
 5  WMLTRKQFGLLSFFFAVLHAIESL [Y22E]           2.93
 6  WMLTRKQFGLLYFFFAVLHAIYSL [S12Y]           1.25
 7   WMHTRKQFGLLSFFFAVLHAIYSL [L3H]           2.09
 8  WMLTRKQFGLLSFFFAVTHAIYSL [L18T]           1.92
 9   WMITRKQFGLLSFFFAVLHAIYSL [L3I]           2.59
10  WMLTRKQFGLLSFSFAVLHAIYSL [F14S]           2.82
